Source: PubChem BioAssay AID1259427

Target Of Assay: Aedes aegypti neuropeptide Y-like receptor 7 (NPYLR7)
Assay Protocol: agonists of mosquito NPYLR7 receptor, confirmation, cell-based, Aedes aegypti, hit validation, mosquito biting behavior (AID 1259427);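 also: potency of agonists that activate the receptor and raise the calcium signal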
Assay Conditions: HEK293T NPYLR7/Galpha15/GCaMP6s, calcium fluorescence
Activity calls are given as the source filed them.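 The calls were made as follows: active = EC50 at or below a set limit, with no effect in the paired counter-screen assay; inactive = the rest.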
Assay Endpoint: EC50

Tell me its EC50 given CCN(CC)CC[n+]1c(C)cc(C=C2Sc3ccccc3N2C)cc1C as the entry.
> 20 µM (inactive)

Complete the entry with EC50 for CCOc1cc2c(cc1C=C(C#N)C#N)OC(C)C2 (stereo unspecified)
> 20 µM (inactive)

Report EC50 for CCN1CC(=Cc2cc(C)n(C3CC3)c2C)C(=O)C(=Cc2cc(C)n(C3CC3)c2C)C1
> 20 µM (inactive)

# map each compound to its EC50
1. N#CC(C#N)=C1C=C2C=C(N3CCCCCC3)CCC2CC1 (stereo unspecified)
2. O=C1/C(=C/c2cc3ccccc3o2)Oc2cc(O)ccc21
3. Cc1ccc(C2=NN(C(=O)CN3CCN(C)CC3)C(c3ccccc3Cl)C2)cc1 (stereo unspecified)
4. O=C1c2cccc3c(NCCO)ccc(c23)C(=O)N1CCO
5. COc1ccc2nc(C=Cc3cc(Br)c(O)c(OC)c3)sc2c1
6. Cc1ccc2nc(Cn3cnc4c(Cl)cc(Cl)cc4c3=O)cc(=O)n2c1

< 0.039 µM (inactive)
> 20 µM (inactive)
> 20 µM (inactive)
< 0.039 µM (inactive)
> 20 µM (inactive)
> 20 µM (inactive)

Read off the recorded EC50 for Clc1ccc(-c2noc3c2CN(CCn2cc(Cl)cn2)CC3)cc1
> 20 µM (inactive)
